Test system: Aspergillus fumigatus
Test: Antifungal activity against Aspergillus fumigatus assessed as zone of inhibition at 50 ug/ml
Format: functional
Settings: read-out: IZ
Readings of zone of inhibition at 50 µg/mL for the listed compounds

Field: example entries. Status: answers known.
ENTRY_SMILES	zone of inhibition at 50 µg/mL
COc1ccc(-n2nnnc2-c2cccnc2)cc1	10 to 22 mm
COc1ccc(-c2nnnn2-c2ccccn2)cc1	16 to 24 mm
Clc1ccc(-n2nnnc2-c2cccnc2)cc1	10 to 22 mm

Data request: Any idea what zone of inhibition at 50 µg/mL was measured for "Brc1ccc(-n2nnnc2-c2cccnc2)cc1" ?
Data returned: 10 to 22 mm

Data request: Also "O=[N+]([O-])c1ccc(-n2nnnc2-c2cccnc2)cc1" ?
Data returned: 10 to 22 mm

Data request: And "c1ccc(-c2nnnn2-c2ccccn2)cc1" ?
Data returned: 10 to 24 mm

Data request: Now the same for "Clc1cccc(-c2nnnn2-c2ccccn2)c1Cl"
Data returned: 10 to 24 mm

Data request: Also check "Clc1ccc(-c2nnnn2-c2ccccn2)cc1"
Data returned: 10 to 24 mm

Data request: Here is the next compound: "Clc1ccccc1-n1nnnc1-c1cccnc1"
Data returned: 10 to 22 mm

Data request: Same again, this time with "Brc1cccc(-c2nnnn2-c2ccccn2)c1"
Data returned: 10 to 24 mm

Data request: Same again, this time with "Cc1ccc(-n2nnnc2-c2cccnc2)cc1"
Data returned: 10 to 22 mm

Data request: Query "Clc1cccc(-n2nnnc2-c2cccnc2)c1Cl" next
Data returned: 10 to 22 mm

Data request: Next entry: "Clc1ccccc1-c1nnnn1-c1ccccn1"
Data returned: 10 to 24 mm

Data request: Ok, now "c1ccc(-n2nnnc2-c2cccnc2)cc1"
Data returned: 10 to 22 mm

Data request: Could you do the same for "COc1ccccc1-n1nnnc1-c1cccnc1" , please?
Data returned: 10 to 22 mm

Data request: What do you get for "O=[N+]([O-])c1cc(-c2nnnn2-c2ccccn2)cc([N+](=O)[O-])c1" ?
Data returned: 10 to 24 mm

Data request: Then this compound: "O=[N+]([O-])c1ccccc1-n1nnnc1-c1cccnc1"
Data returned: 10 to 22 mm

Data request: Let us now turn to "Cc1ccc(-c2nnnn2-c2ccccn2)cc1"
Data returned: 10 to 24 mm
